Listing of entries alongside the reported MIC80.
test system: Cryptococcus neoformans; test: Antifungal activity against Cryptococcus neoformans 32609 assessed as inhibition in growth incubated for 48 hrs by broth microdilution method; format: functional
Lab book: enter the figure in µg/mL, no units written.

Below, each entry is followed by its recorded MIC80 result.
- molecule: "OC(Cn1cncn1)(Cn1cncn1)c1ccc(F)cc1F"
  studyTarget: "Cryptococcus neoformans"
  unitInfo: "µg/mL"
  valueObserved: 1
- molecule: "CC(=O)O[C@@H]1C[C@]23C4=CC[C@@]5(C)[C@H](C(=O)O)[C@@](C)([C@H](C)C(C)C)CC[C@]5(C)[C@H]4CC[C@H]2[C@@](C)(COC3O)[C@H]1O[C@@H]1O[C@H](CO)[C@@H](O)[C@H](O)[C@H]1O (some centres undefined)"
  studyTarget: "Cryptococcus neoformans"
  unitInfo: "µg/mL"
  valueObserved: 8

--- query ---
Task: What does the data say about its MIC80? Entry: CC(=O)O[C@@H]1C[C@]23C4=CC[C@@]5(C)[C@@H]6C(=O)C[C@H](C(C)C)[C@@]6(C)CC[C@]5(C)[C@H]4CC[C@H]2[C@@](C)(COC3O)[C@H]1O[C@@H]1O[C@H](CO)[C@@H](O)[C@H](O)[C@H]1O (some centres undefined)
Result: 64

---

Documented MIC80 across a set of compounds
system: [Candida] auris; test: Antifungal activity against Candida auris 918 assessed as inhibition in growth incubated for 48 hrs by broth microdilution method; format: functional; conditions: Candidozyma auris

Below are worked cases with known answers.
- compound: "CC(=O)O[C@@H]1C[C@]23C4=CC[C@@]5(C)[C@@H]6C(=O)C[C@H](C(C)C)[C@@]6(C)CC[C@]5(C)[C@H]4CC[C@H]2[C@@](C)(COC3O)[C@H]1O[C@@H]1O[C@H](CO)[C@@H](O)[C@H](O)[C@H]1O (some centres undefined)"
  MIC80: "> 64 µg/mL"
- compound: "CC(C)[C@@H](C)[C@@]1(C)CC[C@]2(C)[C@H]3CC[C@H]4[C@@]5(C)COC(O)[C@@]4(C[C@@H](O)[C@@H]5O[C@@H]4O[C@H](CO)[C@@H](O)[C@H](O)[C@H]4O)C3=CC[C@@]2(C)[C@@H]1C(=O)O (some centres undefined)"
  MIC80: "> 64 µg/mL"
- compound: "OC(Cn1cncn1)(Cn1cncn1)c1ccc(F)cc1F [FLUCONAZOLE]"
  MIC80: "> 64 µg/mL"

Task: MIC80 lookup needed for CC(=O)O[C@@H]1C[C@]23C4=CC[C@@]5(C)[C@H](C(=O)O)[C@@](C)([C@H](C)C(C)C)CC[C@]5(C)[C@H]4CC[C@H]2[C@@](C)(COC3O)[C@H]1O[C@@H]1O[C@H](CO)[C@@H](O)[C@H](O)[C@H]1O (some centres undefined) [ENFUMAFUNGIN] , thanks.
Result: 64 µg/mL

---

system: Candida albicans; assay: Antifungal activity against Candida albicans SC5314 assessed as inhibition in growth incubated for 48 hrs by broth microdilution method; type: functional
reportedMetric: MIC80 (µg/mL)
Please reply with the bare figure in µg/mL and do not write the unit itself.

Task: Data request, read-out MIC80, for OC(Cn1cncn1)(Cn1cncn1)c1ccc(F)cc1F [FLUCONAZOLE]
Result: 1

Task: Which MIC80 reading was recorded for the compound CC(=O)O[C@@H]1C[C@]23C4=CC[C@@]5(C)[C@@H]6C(=O)C[C@H](C(C)C)[C@@]6(C)CC[C@]5(C)[C@H]4CC[C@H]2[C@@](C)(COC3O)[C@H]1O[C@@H]1O[C@H](CO)[C@@H](O)[C@H](O)[C@H]1O (some centres undefined) ?
Result: 64

Task: Please give the measured MIC80 for this compound: CC(=O)O[C@@H]1C[C@]23C4=CC[C@@]5(C)[C@H](C(=O)O)[C@@](C)([C@H](C)C(C)C)CC[C@]5(C)[C@H]4CC[C@H]2[C@@](C)(COC3O)[C@H]1O[C@@H]1O[C@H](CO)[C@@H](O)[C@H](O)[C@H]1O (some centres undefined) [ENFUMAFUNGIN]
Result: 4
